Where do the numbers come from? From patent US20220324970A1.

- tested target: human pIgR, full-length, on cells (human, UniProt P01833 19-764)
- Sequence (P01833 19-764): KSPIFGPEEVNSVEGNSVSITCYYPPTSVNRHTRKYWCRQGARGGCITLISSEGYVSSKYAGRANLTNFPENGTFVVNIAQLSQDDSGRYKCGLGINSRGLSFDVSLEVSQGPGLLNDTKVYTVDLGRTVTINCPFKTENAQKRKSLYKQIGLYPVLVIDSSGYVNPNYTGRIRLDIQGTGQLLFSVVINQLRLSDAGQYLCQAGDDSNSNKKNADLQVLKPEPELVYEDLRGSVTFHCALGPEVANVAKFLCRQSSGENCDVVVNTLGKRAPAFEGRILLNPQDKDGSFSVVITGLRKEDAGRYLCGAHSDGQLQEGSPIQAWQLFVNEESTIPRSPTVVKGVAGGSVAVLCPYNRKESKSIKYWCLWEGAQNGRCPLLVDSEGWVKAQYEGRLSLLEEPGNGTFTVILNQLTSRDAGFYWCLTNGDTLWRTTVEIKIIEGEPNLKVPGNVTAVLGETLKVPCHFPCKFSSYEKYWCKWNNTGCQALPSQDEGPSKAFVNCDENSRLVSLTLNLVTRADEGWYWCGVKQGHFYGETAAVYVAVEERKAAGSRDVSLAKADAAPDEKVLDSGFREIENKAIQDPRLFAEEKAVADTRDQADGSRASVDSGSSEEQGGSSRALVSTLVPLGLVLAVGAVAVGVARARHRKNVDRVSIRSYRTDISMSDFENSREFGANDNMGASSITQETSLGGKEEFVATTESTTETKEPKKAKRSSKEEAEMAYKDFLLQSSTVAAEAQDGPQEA
- method: cell-based or functional assay
experimental endpoint: Transcytosis (Fold Incr.) (fold)
One number for each entry, in fold.

### Prompt Which value of Transcytosis (Fold Incr.) has been reported for VHH12-linker-mono-Fc protein (Fc fusion, made in CHO cells; also called VHH12-mono-Fc; hpIgR_266) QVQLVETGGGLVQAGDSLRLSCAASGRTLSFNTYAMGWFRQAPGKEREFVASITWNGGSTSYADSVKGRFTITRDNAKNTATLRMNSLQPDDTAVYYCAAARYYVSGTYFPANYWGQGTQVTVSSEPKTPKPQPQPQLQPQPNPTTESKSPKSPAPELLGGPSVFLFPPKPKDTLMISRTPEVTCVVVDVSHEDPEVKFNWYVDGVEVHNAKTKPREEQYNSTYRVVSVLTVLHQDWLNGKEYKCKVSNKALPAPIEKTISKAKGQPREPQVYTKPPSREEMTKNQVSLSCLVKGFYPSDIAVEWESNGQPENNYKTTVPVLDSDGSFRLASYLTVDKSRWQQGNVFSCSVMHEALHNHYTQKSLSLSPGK in the records?
### Response 38.6
